Exercise: state measured IC50 for each of the molecules provided.
- target-entity: human LPAR1 (Homo sapiens, UniProt Q92633)
- Construct: expressed in transfected cells
- Sequence (Q92633 whole entry): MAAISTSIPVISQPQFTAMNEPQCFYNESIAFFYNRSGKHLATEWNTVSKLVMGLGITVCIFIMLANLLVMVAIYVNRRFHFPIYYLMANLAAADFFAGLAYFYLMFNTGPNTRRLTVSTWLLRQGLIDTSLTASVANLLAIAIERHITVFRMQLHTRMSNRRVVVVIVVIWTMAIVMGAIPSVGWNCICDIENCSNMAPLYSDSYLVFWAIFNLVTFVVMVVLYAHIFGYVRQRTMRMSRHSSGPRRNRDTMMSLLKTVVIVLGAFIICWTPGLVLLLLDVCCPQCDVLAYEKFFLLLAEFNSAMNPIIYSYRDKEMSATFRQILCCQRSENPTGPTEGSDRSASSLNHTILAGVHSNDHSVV
- assay-notes: Test Example 1: antagonism against response of LPA-induced increase in intracellular Ca2+ concentration in RH7777 cells stably expressing human LPAR1
- Type: cell-based
- recorded-conditions: RH7777 cells stably expressing human LPAR1; Fluo-4 fluorescence, FDSS6000; read-out: IC50 value (concentration producing 50% antagonism against response of LPA-induced increase in intracellular Ca2+ concentration) (converted)
- Method: (1) Preparation of RH7777 cells stably expressing human LPAR1 The human LPAR1 expression vector was transfected into RH7777 cells to acquire human LPAR1 expressing cells. […] The cells were seeded onto the Poly-D-Lysine 96 well black plate and incubated overnight. […] In FDSS6000 (Hamamatsu Photonics K.K.), LPAs were added, and the change in intracellular Ca^2+ concentration was detected using the fluorescence value of a wavelength of 540 nm by an excitation wavelength of 480 nm as an indicator. […]
One number for each entry, in nM.

molecule	target-entity	quantitative-readout
CCNc1cc(C(C)N(CCCCc2ccccc2)C(=O)NC2(C(=O)O)CCS(=O)(=O)CC2)cc(OCC)c1C(C)=O (stereo not shown)	human LPAR1 (Homo sapiens, UniProt Q92633)	12.2
CCOc1c(C(C)=O)ccc([C@@H](C)N(CCCCc2ccccc2)C(=O)NC2(C(=O)O)CC(F)(F)C2)c1C	human LPAR1 (Homo sapiens, UniProt Q92633)	1.24
CCOc1cc(C(C)N(CCCCc2ccccc2)C(=O)NC2(C(=O)O)CC(F)(F)C2)c2ccn(CC)c2c1 (stereo not shown)	human LPAR1 (Homo sapiens, UniProt Q92633)	7.22
CCOc1cc([C@@H](C)N(CCC2Cc3ccccc3C2)C(=O)NC2(C(=O)O)CC(OC)C2)cc(OCC)c1C(C)=O (stereo partly shown) [Example 4-22]	human LPAR1 (Homo sapiens, UniProt Q92633)	7.62
CCOc1cc([C@@H](C)N(CCC(F)(F)Cc2ccccc2)C(=O)NC2(C(=O)O)CC(F)(F)C2)cc(OCC)c1C(C)O (single isomer, unassigned) [Example 4-85]	human LPAR1 (Homo sapiens, UniProt Q92633)	16.1
CCOc1cc([C@@H](C)N(CCCCc2ccccc2)C(=O)N[C@]2(C(=O)O)C[C@H](OC)C2)c(Cl)c(OCC)c1C(C)=O	human LPAR1 (Homo sapiens, UniProt Q92633)	3.88
CCOc1cc([C@@H](C)N(CCO[C@@H](C)c2ccccc2)C(=O)NC2(C(=O)O)CCC2)c(Cl)c(OCC)c1C(C)=O	human LPAR1 (Homo sapiens, UniProt Q92633)	2.15
CCOc1cc(C(C)N(CCOCc2ccccc2)C(=O)NC2(C(=O)O)CC(F)(F)C2)c(Cl)c(OCC)c1C1CC1 (stereo not shown)	human LPAR1 (Homo sapiens, UniProt Q92633)	1.04

Here are 5 molecules. What values of IC50 were reported for them?
1. CCOc1cc([C@@H](C)N(CCCCc2ccccc2)C(=O)NC2(C(=O)O)CCS(=O)(=O)CC2)cc(OCC)c1C
2. CCOc1cc([C@@H](C)N(CCCC(F)(F)c2ccccc2)C(=O)NC2(C(=O)O)CCOCC2)cc(OCC)c1C(C)O (stereo partly shown) [Example 4-77]
3. CCOc1cc(C(C)N(CCOCc2ccccc2)C(=O)NC2(C(=O)O)CCOCC2)c(C)c(OCC)c1C(C)=O (stereo not shown)
4. CCOc1cc(C(C)N(CCCCc2cc(F)cc(F)c2)C(=O)NC2(C(=O)O)CC(F)(F)C2)cc(OCC)c1C (stereo not shown)
5. CCOc1cc(C(C)N(CCCCc2ccccc2)C(=O)NC2(C(=O)O)CC(F)(F)C2)ccc1C(C)=O (stereo not shown)

Result string:
1. 3.24
2. 5.87
3. 4
4. 26.4
5. 3.62

The values you see were collected from patent US12338203B2.
